Listing: kon of selected binders
# SYSTEM_UNDER_TEST: T1, recombinant human PD-L1 His protein (human, UniProt Q9NZQ7 19-239)
# T1 construct: not shown: His tag
# PROCEDURE_TEXT: SPR Biacore T200, PD-L1 His on chip, sdAb analyte
// note: answer is a bare numeric in M⁻¹ s⁻¹

The examples below pair each entry with its known result.
INSERT INTO measurements (binder, numeric_result) VALUES
  ('AS06791 sdAb (VHH, His6-tagged llama sdAb) VHH: QVQLVESGGGLVQAGGSLRLSCAASGRTFITYAIGWFRQAPGKEREFVTAINWSGSMTSYADSVKGRFTISRDNAKNTVYLQINGLKSEDTAVYYCAAHRGAIAPMTQSVYDYWGQGTQVTVSS', '1.56e+06'),
  ('AS06775 sdAb (VHH, His6-tagged llama sdAb) VHH: QVQLVESGGGLVQAGDSLRLSCAASGRTFLTLAVGWFRQAPGTEREFVAGIRWSGSGTDYADSVKGRFTISRDNAKNTVYLQMNSLKPEDTAVYYCAAHTTIATIPEKYEYEYWGRGTQVTVSS', '1.58e+06'),
  ('AS11948 sdAb (VHH, His6-tagged llama sdAb) VHH: EVQLVESGGGLVQAGDSLRLSCVASGRTFVTYGMGWFRQAPGKEREFVAAINWSGSMTSYGDSVKGRFAISRDNAKNTVYLQMNSLKPEDTAVYYCAAALGAVVYTTREPYTYWGRGTQVTVSS', '2.37e+06'),
  ('AS11947 sdAb (VHH, His6-tagged llama sdAb) VHH: DVQLVESGGGLVQAGDSLRLTCSASGRTFISYAVGWFRQAPGTEREFVAGIRWNGISTDYTDSVKGRFTISRDNAKNTVYLQMNSLKPEDTAIYYCAAHRTIATIPNKYEYDHWGQGTQVTVSS', '1.92e+06'),
  ('AS06730 sdAb (VHH, His6-tagged llama sdAb) VHH: QVQLVESGGGLVQAGGSLRLSCAASGRTFITYAIGWFRQAPGKEREFVSAINWSGSMTSYADSVKGRFTISRDNAKNTVYLQMNGLKPEDTAVYYCAAHRGAIAPIAQSVYTNWGQGTQVTVSS', '7.11e+06');

Query: Request the reported kon associated with AS06682 sdAb (VHH, His6-tagged llama sdAb) VHH: AVQLVESGGGLVQAGDSLRLSCTASGRTFLSYAVGWFRQAPGTEREFVAGIRWSGEHTDYAASVKGRFTISRDNAKNTVYLQMNSLKPEDTAVYYCAAHTTIATIPKKYEYEYWGQGTQVTVSS
Reply: 1.68e+06

Query: Can you share its kon? I mean this binder: AS06628 sdAb (VHH, His6-tagged llama sdAb) VHH: QVQLVESGGGLVQAGGSLRLSCAASGRTFITYAIGWFRQAPGKEREFVTAINWSGSMTSYADSVKGRFTISRDNNKNMVYLQMNSLKPEDTAVYYCAAHRGAIAPMTQSVYDYWGQGTQVTVSS
Reply: 4.1e+06

Query: Quick check: kon of AS06618 sdAb (VHH, His6-tagged llama sdAb) VHH: EVQLVESGGRLVRAGDSLRLSCAASGRTFLSYAVGWFRQAPGTEREFVAGIRWSGGYTDYAEAVKGRFTISRDNAKNTVYLQMNSLKPEDTAVYYCAAHRTIATIPEKYEYEYWGQGTQVTVSS ?
Reply: 1.44e+06
